- TARGET_OR_TEST_SYSTEM: T1, human MSLN-FL-his protein (human, UniProt Q13421 296-580)
- T1 construct: Made in HEK293E cells, purified on nickel column; also called hMSLN-FL-his; human MSLN full-length protein; not shown: His tag
- T1 sequence (Q13421 other isoform, or with tags, fused parts or gaps): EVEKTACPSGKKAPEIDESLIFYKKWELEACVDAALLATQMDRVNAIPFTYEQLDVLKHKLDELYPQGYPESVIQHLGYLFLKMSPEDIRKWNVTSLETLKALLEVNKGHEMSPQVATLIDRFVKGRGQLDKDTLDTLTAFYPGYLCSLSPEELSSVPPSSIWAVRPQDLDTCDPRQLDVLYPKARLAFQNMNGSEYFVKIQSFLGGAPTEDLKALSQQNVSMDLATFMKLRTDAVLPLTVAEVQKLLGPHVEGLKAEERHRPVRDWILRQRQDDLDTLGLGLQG
- TEST_PROTOCOL: ELISA, coated antigen, antibody 0.002 nM
ASSAY_ENDPOINT: OD450
Give a plain numeric answer without units written out.

>  <BINDER>
S009-F7.30.5 chimeric antibody (antibody, human IgG1, kappa, V domains shown, Human-murine chimeric antibody, human IgG1/kappa constant regions) VH: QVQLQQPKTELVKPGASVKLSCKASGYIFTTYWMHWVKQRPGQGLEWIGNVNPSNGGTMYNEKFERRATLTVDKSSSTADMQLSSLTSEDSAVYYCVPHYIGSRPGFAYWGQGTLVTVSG VL: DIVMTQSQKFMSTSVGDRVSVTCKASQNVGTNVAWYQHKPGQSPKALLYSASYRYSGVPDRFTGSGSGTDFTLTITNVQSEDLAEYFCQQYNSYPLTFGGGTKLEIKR

>  <OD450>
0.96

$$$$
>  <BINDER>
S009-F7.12.13 chimeric antibody (antibody, human IgG1, kappa, V domains shown, Human-murine chimeric antibody, human IgG1/kappa constant regions) VH: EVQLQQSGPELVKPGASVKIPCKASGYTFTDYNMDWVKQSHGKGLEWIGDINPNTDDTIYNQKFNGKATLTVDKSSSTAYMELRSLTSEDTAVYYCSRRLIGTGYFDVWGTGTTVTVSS VL: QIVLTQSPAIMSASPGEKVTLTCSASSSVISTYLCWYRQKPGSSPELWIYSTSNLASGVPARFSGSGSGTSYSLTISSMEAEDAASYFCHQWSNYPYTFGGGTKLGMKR

>  <OD450>
0.6

$$$$
>  <BINDER>
S009-F7.11.11 chimeric antibody (antibody, human IgG1, kappa, V domains shown, Human-murine chimeric antibody, human IgG1/kappa constant regions) VH: EVQLQQSGPELVKPGASVKIPCKASGYTITDYNMDWVKQSRGKSLEWIGDVFPYNGDSIYNQKFEGRATLTVDKYSSTAYMELRGLTSEDTAVYFCARRKTGTGYFDVWGTGTTVTVSS VL: QLVLTQSPAIMSASPGEKVTLTCSASSSVSSTYLSWYLQKPGSSPKLWIYSTSNLASGVPARFSGSGSGTSYSLTISSMEAEDAASYFCHQWSSYPYTFGGGTKLEIKR

>  <OD450>
0.16

$$$$
>  <BINDER>
S009-F7.44.20 chimeric antibody (antibody, human IgG1, kappa, V domains shown, Human-murine chimeric antibody, human IgG1/kappa constant regions) VH: EVQLQQSGPELVKPGASVKIPCKASGYTFTDYNMDWVKQSHGKSLEWIGDINPSTGGTIYNQKFNGKATLTEDKSASTVYMEFRSLTSDDTAVYYCARRRIGTGYFDVWGTGTTVTVSS VL: QIVLTQSPALMSASPGEKVTLTCSASSSVISSYLSWYQQKPGSSPKLLIYRTSNLASGVPARFSGSGSGTSYSLTISSMEAEDAASYFCHQWSSFPYTFGGGTKLEIKR

>  <OD450>
0.93

$$$$
>  <BINDER>
S009-F7.25.19 chimeric antibody (antibody, human IgG1, kappa, V domains shown, Human-murine chimeric antibody, human IgG1/kappa constant regions) VH: QVQLQQPGTELVKPGASVKLSCKASGYTFTSYWMHWVKQRPGQGLEWIGNIIPSNGGTKYNEKFKSKATLTVDKSSSTAYMQLSSLTSEDSAVYYCSPHYYGGSPGFAYWGQGTLITVSA VL: DIVMTQSQKFMSTSVGDRVSVICKASQNVGTNVAWYQQKPGQSPKALIYSASYRYSGVPDRFTGSGSGTDFTLTISNVQSEDLAEYFCQQYNSYPLTFGGGTKLEIKR

>  <OD450>
1.25

$$$$
>  <BINDER>
S009-F7.61.21 chimeric antibody (antibody, human IgG1, kappa, V domains shown, Human-murine chimeric antibody, human IgG1/kappa constant regions) VH: DVQLQQSGPELVEPGASVRIPCKAAGHTFTDYNVDWVKQSHGQSLEWIGDVNPNTDGAIYNQKFEGKATLTVDTSSSTAYMELRSLTSEDTAVYFCARRRLGQGGFDSWGQGTTLTVSS VL: QVVLTQSPAIMSASPGEKVTLTCGASSSLISKYLYWYQQKPGSSPKLWIYSTSNLASGVPARFSGSGSGTSYSLTISSMEAEDAASYFCHQWSSYPYTFGGGTKVEIKR

>  <OD450>
0.23

$$$$

Lookup: Query OD450 for S009-F7.69.8 chimeric antibody (antibody, human IgG1, kappa, V domains shown, Human-murine chimeric antibody, human IgG1/kappa constant regions) VH: EVHLQQSGPELVKPGASVRIPCKASGYTFTDYNMDWVKQSHGKSLEWIGDINPDNGGTIYTQKFKGKATLTVDKSSSTAYMELRSLTSEDTAVYYCARRLHYYGSSGLDYWGQGTTLTVSS VL: DIQMTQSPASLSAYVGETVTITCRASGNIHNYLAWYQQKQGKSPQLLVYNAKTLADGVPSRFSGSGSGTQYSLKINSLQPEDFGSYYCQHFWSTVWTFGGGTKLEIKR
Found: 0.43

Lookup: Query OD450 for S009-F7.2.3 chimeric antibody (antibody, human IgG1, kappa, V domains shown, Human-murine chimeric antibody, human IgG1/kappa constant regions) VH: ELQLVESGGDLVKPGGSLKLSCAASGFTFSSNGMSWLRQTPDKRLEWVATISSGGRYTYYPDSVKGRFTISRDNAKNTLYLQMSSLKSEDTAMYYCARRGIYDYFDCWGQGTTLTVSS VL: DIQMTQSPASLSISVGETVTITCRASENIHSSLAWYQQKQGKSPQLLVYAATNLADGVPSRFSGSGSGSQYSLKINSLQSEDFGTYYCQHFWGTPWTFGGGTKLDIKR
Found: 0.41

Lookup: Query OD450 for S009-F7.26.15 chimeric antibody (antibody, human IgG1, kappa, V domains shown, Human-murine chimeric antibody, human IgG1/kappa constant regions) VH: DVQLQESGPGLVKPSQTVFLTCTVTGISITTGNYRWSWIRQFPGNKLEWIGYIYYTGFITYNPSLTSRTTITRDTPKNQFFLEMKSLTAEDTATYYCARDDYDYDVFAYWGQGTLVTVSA VL: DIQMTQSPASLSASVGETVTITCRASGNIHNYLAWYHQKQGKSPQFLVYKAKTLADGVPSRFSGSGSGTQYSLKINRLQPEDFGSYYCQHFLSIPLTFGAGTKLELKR
Found: 0.91

Lookup: Query OD450 for S009-F7.33.24 chimeric antibody (antibody, human IgG1, kappa, V domains shown, Human-murine chimeric antibody, human IgG1/kappa constant regions) VH: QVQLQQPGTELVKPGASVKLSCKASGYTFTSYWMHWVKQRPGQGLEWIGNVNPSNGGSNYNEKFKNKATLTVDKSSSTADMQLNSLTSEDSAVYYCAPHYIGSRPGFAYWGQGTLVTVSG VL: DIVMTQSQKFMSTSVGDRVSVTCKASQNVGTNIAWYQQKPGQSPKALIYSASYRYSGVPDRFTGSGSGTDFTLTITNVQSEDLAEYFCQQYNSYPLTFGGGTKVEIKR
Found: 1.06

Data provenance: patent US20250250357A1
